Reference source: patent US20230303690A1

Target: T1, human LAG3 expressed on cells (human, UniProt P18627 23-525)
T1 construct: whole, on cells
T1 sequence (looked up): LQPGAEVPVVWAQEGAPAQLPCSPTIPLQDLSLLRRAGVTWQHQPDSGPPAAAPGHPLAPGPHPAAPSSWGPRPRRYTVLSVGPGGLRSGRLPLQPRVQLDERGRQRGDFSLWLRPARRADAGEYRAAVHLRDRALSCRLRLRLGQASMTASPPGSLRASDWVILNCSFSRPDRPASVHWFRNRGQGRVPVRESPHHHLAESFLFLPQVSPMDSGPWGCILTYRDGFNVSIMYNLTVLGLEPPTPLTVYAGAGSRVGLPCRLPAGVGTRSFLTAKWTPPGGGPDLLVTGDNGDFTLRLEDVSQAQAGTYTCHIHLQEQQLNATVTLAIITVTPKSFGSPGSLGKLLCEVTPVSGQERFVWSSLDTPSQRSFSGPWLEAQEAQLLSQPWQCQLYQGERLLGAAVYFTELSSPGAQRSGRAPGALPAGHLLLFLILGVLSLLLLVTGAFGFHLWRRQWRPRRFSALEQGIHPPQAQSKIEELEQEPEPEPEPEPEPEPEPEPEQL
Assay: FACS, 293T-hLAG3 cells
readout: FACS signal at 1.6461 nM
Give bare numbers.

Solved entries:
sdAb No. 27-H1B3 (VHH, Humanized sdAb No. 27-H1; not shown: Fc part implied by anti-human IgG Fc detection) VHH: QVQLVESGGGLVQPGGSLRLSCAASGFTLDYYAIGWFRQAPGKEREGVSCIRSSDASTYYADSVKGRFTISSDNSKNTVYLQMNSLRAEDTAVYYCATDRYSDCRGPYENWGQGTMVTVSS	2810
sdAb No. 27 (VHH, Fc of the tested form not described; also called sdAb 27; not shown: Fc part implied by anti-human Fc capture and anti-human IgG Fc detection) VHH: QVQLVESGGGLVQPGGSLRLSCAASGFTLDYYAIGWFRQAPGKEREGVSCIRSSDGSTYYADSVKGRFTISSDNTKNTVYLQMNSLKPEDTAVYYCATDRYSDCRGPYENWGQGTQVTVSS	2240
sdAb No. 25-B7 (VHH, Humanized sdAb No. 25; not shown: Fc part implied by anti-human IgG Fc detection) VHH: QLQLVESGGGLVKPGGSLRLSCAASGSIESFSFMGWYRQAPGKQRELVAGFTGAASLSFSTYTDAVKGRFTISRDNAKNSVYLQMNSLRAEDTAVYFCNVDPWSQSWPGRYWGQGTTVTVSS	1690

Next binder, please.
Ask | Dear colleague, please send me the reported FACS signal at 1.6461 nM for sdAb No. 25 (VHH, Fc of the tested form not described; also called sdAb 25; sdAb #25; not shown: Fc part implied by anti-human Fc capture and anti-human IgG Fc detection) VHH: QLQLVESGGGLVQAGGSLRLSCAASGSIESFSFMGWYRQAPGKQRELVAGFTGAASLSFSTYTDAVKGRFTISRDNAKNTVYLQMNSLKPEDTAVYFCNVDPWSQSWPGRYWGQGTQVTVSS when you can.
Reply | 1410
